Test system: A549
Assay: Anticancer activity against human A549 cells after 48 hrs by SRB assay
Type: functional
Conditions: A549, 48 h
Experimental endpoint: log10 GI50 (log10 of the value in nM)

                                   molecule  target_of_assay  experimental_endpoint  data_value
0  FC(F)(F)c1ccc2c(OCc3cn(CCC(F)(F)C(F)(F)C(F)(F)C(F)(F)C(F)(F)C(F)(F)F)nn3)nc(-c3ccccc3)nc2n1             A549             log10 GI50        3.28
1  O=C(Cn1cc(COc2nc(-c3ccccc3)nc3nc(C(F)(F)F)ccc23)nn1)Nc1ccccc1             A549             log10 GI50        2.15
2  O=c1c2ccc(C(F)(F)F)nc2ncn1Cc1cc(-c2ccc(Cl)cc2)no1             A549             log10 GI50        3.04
3  CCCCCCCCCCn1cc(Cn2c(CC)nc3nc(C(F)(F)F)ccc3c2=O)nn1             A549             log10 GI50        2.93
4  COC(=O)Nc1nc2cc(C(=O)c3cccs3)ccc2[nH]1 [NOCODAZOLE]             A549             log10 GI50        1.90
5  CCCCCCCCCCn1cc(COc2nc(-c3ccccc3)nc3nc(C(F)(F)F)ccc23)nn1             A549             log10 GI50        3.36
6  O=c1c2ccc(C(F)(F)F)nc2nc(-c2ccccc2)n1Cc1cc(-c2cccc3ccccc23)no1             A549             log10 GI50        3.50
7  CCc1nc2nc(C(F)(F)F)ccc2c(=O)n1Cc1cn(CC(=O)Nc2ccccc2)nn1             A549             log10 GI50        3.72
8  O=c1c2ccc(C(F)(F)F)nc2ncn1Cc1cc(-c2ccc(Br)cc2)no1             A549             log10 GI50        3.58
